Provide the reported MTD of each item.
method-notes: In vivo toxicity, maximum tolerated dose
assay-context: female, BALB/c, mouse, intraperitoneal
// return numeric value only (unit: mg/kg, not printed)

Report MTD, nothing else, for this molecule: "O=C(Nc1ccc([N+](=O)[O-])cc1)Nc1ccc(S(=O)(=O)Nc2ccc(Cl)c(Cl)c2)cc1" 25

Indicate its recorded MTD; the molecule in question is "O=C(Nc1ccc(S(=O)(=O)Nc2cccc(C(F)(F)F)c2)cc1)Nc1cccc(Cl)c1" 10

Give the reported MTD for this molecule. "COc1cccc(NC(=O)Nc2ccc(S(=O)(=O)Nc3ccc(Cl)c(Cl)c3)cc2)c1" 50

Fill in MTD for record "O=C(Nc1ccc(S(=O)(=O)Nc2ccc(Cl)c(Cl)c2)cc1)Nc1cccc([N+](=O)[O-])c1" 250

Cited source for all entries: patent US20110275635A1
